These entries and their values trace back to paper PMC10786891.

I'd appreciate it if you could supply pKd values for the items below.
system.name: T1, EsCas13d, nuclease-dead (Eubacterium siraeum, UniProt B0MS50, R295A;H300A;R849A;H854A)
T1 sequence: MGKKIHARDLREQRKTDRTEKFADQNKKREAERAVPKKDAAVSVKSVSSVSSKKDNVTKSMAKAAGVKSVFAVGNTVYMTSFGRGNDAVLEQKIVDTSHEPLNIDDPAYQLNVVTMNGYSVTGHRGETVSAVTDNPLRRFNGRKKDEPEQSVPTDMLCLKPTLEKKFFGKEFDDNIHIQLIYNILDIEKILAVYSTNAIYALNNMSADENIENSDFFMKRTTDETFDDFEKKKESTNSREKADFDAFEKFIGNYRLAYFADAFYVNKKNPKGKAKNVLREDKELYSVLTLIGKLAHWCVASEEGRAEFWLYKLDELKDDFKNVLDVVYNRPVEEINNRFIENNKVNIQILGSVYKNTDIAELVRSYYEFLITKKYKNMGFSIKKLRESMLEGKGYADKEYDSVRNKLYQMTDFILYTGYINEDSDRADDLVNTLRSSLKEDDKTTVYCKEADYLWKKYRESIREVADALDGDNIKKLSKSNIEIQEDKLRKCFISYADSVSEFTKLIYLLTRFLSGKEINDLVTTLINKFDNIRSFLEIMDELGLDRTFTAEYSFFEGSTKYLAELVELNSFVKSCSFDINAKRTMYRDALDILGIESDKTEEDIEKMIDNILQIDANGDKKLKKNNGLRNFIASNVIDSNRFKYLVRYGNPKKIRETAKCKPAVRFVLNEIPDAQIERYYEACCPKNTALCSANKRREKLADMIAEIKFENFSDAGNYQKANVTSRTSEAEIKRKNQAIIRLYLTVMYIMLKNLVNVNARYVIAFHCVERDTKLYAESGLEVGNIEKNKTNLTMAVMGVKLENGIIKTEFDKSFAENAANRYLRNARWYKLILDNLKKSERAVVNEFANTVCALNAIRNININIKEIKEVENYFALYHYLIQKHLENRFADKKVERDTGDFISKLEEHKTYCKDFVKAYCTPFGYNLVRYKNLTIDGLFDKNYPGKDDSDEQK
method.notes: crRNA (strand 1, pre-loaded); Mg2+; 40 mM Tris-HCl pH 7.5, 150 mM NaCl, 6 mM MgCl2, 1 mM DTT, 0.1% Tween-20, 0.2 mg/ml BSA; 25 C; 10 min per concentration, then washed
cond: tags: His6-TwinStrep-SUMO cleaved; N-terminal SNAP kept (SNAP-Surface 488); label: 3' end held by stalled T7 RNA polymerase
Numbers only, as −log10 of the molar value.

Please report pKd for every entry that follows.
1. target 1 G5U,C22A (mixed) RNA 1: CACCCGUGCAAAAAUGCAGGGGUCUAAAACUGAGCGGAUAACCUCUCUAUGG RNA 2: GGGAAUGGAUCCACAUCUACGAAUUCGUAACAUAGAGAGGUUAUCCUCUCACCGAGAUCGGAAGAGCACACGU
2. target 3 insA 3' of 7,insA 3' of 6 (mixed) RNA 1: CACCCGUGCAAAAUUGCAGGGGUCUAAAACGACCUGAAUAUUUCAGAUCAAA RNA 2: GGGAAUGGAUCCACAUCUACGAAUUCGUUUUUGAUCUGAAAUAUUACAAGGUCUGCAGAUCGGAAGAGCACACGU

Key:
1. 7.27
2. 7.63
